test-details: CCTE_Shafer_MEA_dev_per_burst_interspike_interval: CCTE's Neural Network Formation Assay for Burst Interspike Interval, Shafer Lab (AID 2284044);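 note: mean spike spacing inside bursts as AUC over recordings on days 5 7 9 12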
Experimental: CCTE_Shafer_MEA_dev assay is conducted using Axion Biosystems 48 well microelectrode array (MEA) plates and Maestro recording system. Each well of the MEA plate contains a grid of 16 microelectrodes embedded in the culture surface. Electrically active cells, such as neurons, can be cultured over the electrodes, and electrical activity in these cells can be recorded extracellularly. […]
Calls of active or inactive are those of the source. Rule for the calls: active = hit-call score of the fitted dose curve at least 0.9, where 1 is the maximum; inactive = score below 0.9.
Returns: one label drawn from 1 = active, 0 = inactive

Some entries whose results are on file:
smiles_representation=ClC1=C(Cl)[C@]2(Cl)[C@@H]3[C@@H]4C[C@@H]([C@H]5O[C@@H]45)[C@@H]3[C@@]1(Cl)C2(Cl)Cl qualitative_label=1
smiles_representation=C=CC(N)=O qualitative_label=0
smiles_representation=O=S(=O)(O)C(F)(F)C(F)(F)C(F)(F)C(F)(F)C(F)(F)C(F)(F)F qualitative_label=0
smiles_representation=ClC1=C(Cl)[C@]2(Cl)[C@@H]3[C@@H](Cl)[C@H]4O[C@H]4[C@@H]3C1(Cl)C2(Cl)Cl qualitative_label=1
smiles_representation=c1cc2ccc3cccc4ccc(c1)c2c34 qualitative_label=0
smiles_representation=Oc1ccc(C(c2ccc(O)cc2)(C(F)(F)F)C(F)(F)F)cc1 qualitative_label=0
smiles_representation=ClC(Cl)=C(c1ccc(Cl)cc1)c1ccc(Cl)cc1 qualitative_label=1
smiles_representation=O=C(O)C(F)(F)C(F)(F)C(F)(F)C(F)(F)C(F)(F)C(F)(F)C(F)(F)C(F)(F)F qualitative_label=0

Ask: Could you check what this test reported for COc1ccc(O)c(C(C)(C)C)c1 ?
Result: 0

Ask: Can you look up the reported call for CCC(C)(c1ccc(O)cc1)c1ccc(O)cc1 for me?
Result: 0

----------
test-details: CCTE_Shafer_MEA_dev_firing_rate_mean: CCTE's Neural Network Formation Assay for Mean Firing Rate, Shafer Lab (AID 2284031);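 note: AUC of well mean spike rate recorded on DIV 5 7 9 and 12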;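 for AC50: curve fitted for loss of firing so AC50 reflects decreased mean firing rate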
Active and inactive are the calls of the source. How the source made its calls: active means hit-call score of the fitted dose curve at least 0.9, where 1 is the maximum; inactive means score below 0.9.
recorded-metric: AC50

Worked set:
compound=c1cc2ccc3cccc4ccc(c1)c2c34 result=inactive
compound=NS(=O)(=O)C(F)(F)C(F)(F)C(F)(F)C(F)(F)C(F)(F)C(F)(F)C(F)(F)C(F)(F)F result=inactive
compound=O=C(O)C(F)(F)C(F)(F)C(F)(F)C(F)(F)C(F)(F)F result=inactive
compound="Clc1ccc(C(c2ccccc2Cl)C(Cl)(Cl)Cl)cc1 (stereo not drawn)" result="2.03 µM (active)"
compound=CCC(C)(c1ccc(O)cc1)c1ccc(O)cc1 result=inactive

Each compound below has a reported value. Please supply its AC50.
1. ClC1=C(Cl)[C@]2(Cl)[C@@H]3[C@H]4C[C@H]([C@@H]5O[C@H]45)[C@@H]3[C@@]1(Cl)C2(Cl)Cl
2. ClC(Cl)=C(c1ccc(Cl)cc1)c1ccc(Cl)cc1
3. C=CC(N)=O

Result:
inactive
4.06 µM (active)
inactive

----------
test-details: APR_HepG2_MitoMass_72hr: Apredica 72-hour HepG2 Assay for Mitochondrial Mass (AID 2282924);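 note: MitoTracker Red CMXRos stain intensity per cell imaged as mitochondrial mass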
stated-conditions: high-content imaging, actives raise or lower the signal
Description: APR_HepG2_72hr is a cell-based, multiplexed-readout assay that uses HepG2, a human liver cell line, with measurements taken at 72 hours after chemical dosing in a 384-well plate.APR_HepG2_MitoMass_72hr is one of 10 assay component(s) measured or calculated from the APR_HepG2_72hr assay. […] This assay endpoint, APR_HepG2_MitoMass_72hr, was analyzed with bidirectional fitting relative to DMSO as the negative control and baseline of activity. […]
Calls of active or inactive are those of the source. Rule for the calls: active = hit-call score of the fitted dose curve at least 0.9, where 1 is the maximum; inactive = score below 0.9.
Hi there, use one of these labels in your reply, thanks! true (1) (active), false (0) (inactive)

Please review the following examples before continuing.
molecule=CN(C)CCO qualitative_label="false (0)"
molecule=Cc1cc(-c2ccc(N)c(C)c2)ccc1N qualitative_label="false (0)"
molecule=COc1ccc(O)c(C(C)(C)C)c1 qualitative_label="false (0)"
molecule=Cc1cccc([N+](=O)[O-])c1 qualitative_label="false (0)"
molecule=Cc1cc(O)ccc1Cl qualitative_label="false (0)"
molecule=ClC(Cl)=C(c1ccc(Cl)cc1)c1ccc(Cl)cc1 qualitative_label="true (1)"
molecule=Nn1cnnc1 qualitative_label="false (0)"
molecule=C=CC(=O)NCNC(=O)C=C qualitative_label="false (0)"
molecule=CCNc1nc(NC(C)C)nc(SC)n1 qualitative_label="false (0)"
molecule=CCOP(=S)(OCC)SCSC(C)(C)C qualitative_label="false (0)"

Ask: Record lookup: outcome of this test for CC(C)C(=O)OCC(C)(C)C(OC(=O)C(C)C)C(C)C (centres undefined) ?
Result: false (0)

Ask: What did the test return for Cc1cc2c3c(c1)C(c1ccccc1)=N[C@@H](NC(=O)c1ccncc1)C(=O)N3CC2 ?
Result: false (0)

Ask: Any idea what this test logged for O=S(=O)(O)C(F)(F)C(F)(F)C(F)(F)C(F)(F)C(F)(F)C(F)(F)F ?
Result: false (0)

Ask: # outcome recorded in this test, key = ClC1=C(Cl)[C@]2(Cl)[C@@H]3[C@@H](Cl)[C@H]4O[C@H]4[C@@H]3C1(Cl)C2(Cl)Cl
Result: false (0)
